- target_desc: Glucagon receptor (Rattus norvegicus)
- test: Compound was evaluated for its ability to displace radiolabeled glucagon
measured_quantity: IC50 (nM)
One number for each entry, in nM.

Task: Query: IC50; subject: "H-SQGTTSEYSKYLDSRRAQDFVQWLMNT-NH2"
Result: 48

* * *

- target_desc: Adenylate cyclase
- test: Adenylate cyclase activity of the compound, expressed as effective concentration
- Type: protein assay
measured_quantity: pEC50
Answers are plain numbers, as −log10 of the molar value.

Task: Query: pEC50; subject: "GLUCAGON"
Result: 8.23

* * *

Provide the recorded Relative binding for the entries that follow.
- target_desc: Glucagon receptor (Rattus norvegicus) (UniProt P30082)
- Sequence (P30082 whole entry): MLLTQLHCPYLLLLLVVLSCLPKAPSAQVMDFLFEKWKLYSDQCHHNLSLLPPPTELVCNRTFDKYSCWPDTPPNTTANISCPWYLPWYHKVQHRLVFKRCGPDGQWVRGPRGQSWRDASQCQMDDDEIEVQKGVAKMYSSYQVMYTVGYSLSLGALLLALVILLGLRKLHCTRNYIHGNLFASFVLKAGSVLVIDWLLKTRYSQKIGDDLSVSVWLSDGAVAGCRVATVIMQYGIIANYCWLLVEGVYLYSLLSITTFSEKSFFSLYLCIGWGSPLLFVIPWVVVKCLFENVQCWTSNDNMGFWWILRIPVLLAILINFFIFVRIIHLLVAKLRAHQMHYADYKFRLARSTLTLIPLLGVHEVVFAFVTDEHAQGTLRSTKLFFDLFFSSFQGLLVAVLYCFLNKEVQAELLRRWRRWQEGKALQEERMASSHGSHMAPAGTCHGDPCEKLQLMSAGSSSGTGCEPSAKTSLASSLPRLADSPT
- test: Relative binding by measuring competition for glucagon receptor between [125]glucagon and the compound.
Peptide text beside a SMILES is read from it.
Give bare numbers, in %.

Solved entries (count: 2):
>>> assay_value("CC(=O)N[C@@H](Cc1ccccc1)C(=O)N[C@H]1CSSC[C@@H](C(=O)N[C@@H](Cc2ccc(O)cc2)C(=O)N[C@@H](CC(C)C)C(=O)N[C@@H](CC(=O)O)C(N)=O)NC(=O)[C@H](CO)NC(=O)[C@H](Cc2ccc(O)cc2)NC(=O)[C@H](CC(=O)O)NC(=O)[C@H](CO)NC1=O (HELM PEPTIDE1{[ac].F.C.S.D.Y.S.C.Y.L.D.[am]}$PEPTIDE1,PEPTIDE1,3:R3-8:R3$$$V2.0)")
30
>>> assay_value("CC(=O)N[C@@H](Cc1ccccc1)C(=O)N[C@H]1CSSC[C@@H](C(=O)N[C@@H](CCCCN)C(=O)N[C@@H](Cc2ccc(O)cc2)C(=O)N[C@@H](CC(C)C)C(N)=O)NC(=O)[C@H](Cc2ccc(O)cc2)NC(=O)[C@H](CC(=O)O)NC(=O)[C@H](CO)NC1=O (HELM PEPTIDE1{[ac].F.C.S.D.Y.C.K.Y.L.[am]}$PEPTIDE1,PEPTIDE1,3:R3-7:R3$$$V2.0)")
62

With those in mind, consider the next molecule.
Task: Form field: Relative binding recorded for CC(=O)N[C@@H](Cc1ccccc1)C(=O)N[C@H](C(=O)N[C@@H](CO)C(=O)N[C@H]1CSSC[C@@H](C(=O)N[C@@H](CC(=O)O)C(N)=O)NC(=O)[C@H](Cc2ccc(O)cc2)NC(=O)[C@H](CCCCN)NC(=O)[C@H](CO)NC(=O)[C@H](Cc2ccc(O)cc2)NC1=O)[C@@H](C)O (HELM PEPTIDE1{[ac].F.T.S.C.Y.S.K.Y.C.D.[am]}$PEPTIDE1,PEPTIDE1,5:R3-10:R3$$$V2.0) with Glucagon receptor (Rattus norvegicus) (UniProt P30082) (enter value)
Result: 43

* * *

- target_desc: Adenylate cyclase (Rattus norvegicus) (UniProt D4A3N4+P26770+Q04400+P26769+Q03343+P40146+Q8CFM9+P21932)
- test: Adenylate cyclase stimulation; Inactive up to 100 uM.
- Format: protein assay
Activity calls are given as the source filed them. The rule behind the calls is not given here. Peptide text beside a SMILES is read from it.
measured_quantity: IA

>>> assay_value("CC(=O)N[C@@H]1CSSC[C@H](C(N)=O)NC(=O)[C@@H](Cc2ccc(O)cc2)NC(=O)[C@H](CCCCN)NC(=O)[C@@H](CO)NC(=O)[C@H](Cc2ccc(O)cc2)NC1=O")
"Inactive up to 100 uM"
>>> assay_value("CC(=O)N[C@@H](Cc1ccccc1)C(=O)N[C@@H](CS)C(=O)N[C@@H](CO)C(=O)N[C@@H](CC(=O)O)C(=O)N[C@@H](Cc1ccc(O)cc1)C(=O)N[C@@H](CO)C(=O)N[C@@H](CS)C(=O)N[C@@H](Cc1ccc(O)cc1)C(=O)N[C@@H](CC(C)C)C(N)=O (Ac-FCSDYSCYL-NH2)")
"Inactive up to 100 uM"
>>> assay_value("CC(=O)N[C@@H](Cc1ccccc1)C(=O)N[C@H]1CSSC[C@@H](C(=O)N[C@@H](CCCCN)C(=O)N[C@@H](Cc2ccc(O)cc2)C(=O)N[C@@H](CC(C)C)C(N)=O)NC(=O)[C@H](Cc2ccc(O)cc2)NC(=O)[C@H](CC(=O)O)NC(=O)[C@H](CO)NC1=O (HELM PEPTIDE1{[ac].F.C.S.D.Y.C.K.Y.L.[am]}$PEPTIDE1,PEPTIDE1,3:R3-7:R3$$$V2.0)")
"Inactive up to 100 uM"

* * *

- target_desc: Adenylate cyclase (Rattus norvegicus) (UniProt D4A3N4+P26770+Q04400+P26769+Q03343+P40146+Q8CFM9+P21932)
- test: Maximum stimulation of adenylate cyclase.
- Type: protein assay
Peptide text beside a SMILES is read from it.
Provide the recorded Max stimulation for the entries that follow.
Numbers only, in %.

Solved entries (count: 2):
>>> assay_value("CC(=O)N[C@@H](Cc1ccccc1)C(=O)N[C@H](C(=O)N[C@@H](CO)C(=O)N[C@H]1CSSC[C@@H](C(=O)N[C@@H](CC(=O)O)C(N)=O)NC(=O)[C@H](Cc2ccc(O)cc2)NC(=O)[C@H](CCCCN)NC(=O)[C@H](CO)NC(=O)[C@H](Cc2ccc(O)cc2)NC1=O)[C@@H](C)O (HELM PEPTIDE1{[ac].F.T.S.C.Y.S.K.Y.C.D.[am]}$PEPTIDE1,PEPTIDE1,5:R3-10:R3$$$V2.0)")
0
>>> assay_value("CSCC[C@H](NC(=O)[C@H](CC(C)C)NC(=O)[C@H](Cc1c[nH]c2ccccc12)NC(=O)[C@H](CCC(N)=O)NC(=O)[C@@H](NC(=O)[C@H](Cc1ccccc1)NC(=O)[C@H](CC(=O)O)NC(=O)[C@H](CCC(N)=O)NC(=O)[C@H](C)NC(=O)[C@H](CCCN=C(N)N)NC(=O)[C@H](CCCN=C(N)N)NC(C)=O)C(C)C)C(=O)N[C@@H](CC(N)=O)C(=O)N[C@H](C(N)=O)[C@@H](C)O")
0

With those in mind, consider the next molecule.
Task: Query: Max stimulation; subject: CC(=O)N[C@@H](Cc1ccccc1)C(=O)N[C@H]1CSSC[C@@H](C(=O)N[C@@H](CCCCN)C(=O)N[C@@H](Cc2ccc(O)cc2)C(=O)N[C@@H](CC(C)C)C(N)=O)NC(=O)[C@H](Cc2ccc(O)cc2)NC(=O)[C@H](CC(=O)O)NC(=O)[C@H](CO)NC1=O (HELM PEPTIDE1{[ac].F.C.S.D.Y.C.K.Y.L.[am]}$PEPTIDE1,PEPTIDE1,3:R3-7:R3$$$V2.0)
Result: 0

* * *

- target_desc: Adenylate cyclase (Rattus norvegicus) (UniProt D4A3N4+P26770+Q04400+P26769+Q03343+P40146+Q8CFM9+P21932)
- test: Adenylate cyclase stimulation; Inactive up to 100 uM.
- Type: protein assay
Activity calls are given as the source filed them. The rule behind the calls is not given here. Peptide text beside a SMILES is read from it.
measured_quantity: IA

>>> assay_value("CC(=O)N[C@@H](Cc1ccccc1)C(=O)N[C@H]1CSSC[C@@H](C(=O)N[C@@H](Cc2ccc(O)cc2)C(=O)N[C@@H](CC(C)C)C(=O)N[C@@H](CC(=O)O)C(N)=O)NC(=O)[C@H](CO)NC(=O)[C@H](Cc2ccc(O)cc2)NC(=O)[C@H](CC(=O)O)NC(=O)[C@H](CO)NC1=O (HELM PEPTIDE1{[ac].F.C.S.D.Y.S.C.Y.L.D.[am]}$PEPTIDE1,PEPTIDE1,3:R3-8:R3$$$V2.0)")
"Inactive up to 100 uM"
>>> assay_value("CC(=O)N[C@@H](CS)C(=O)N[C@@H](Cc1ccc(O)cc1)C(=O)N[C@@H](CO)C(=O)N[C@@H](CCCCN)C(=O)N[C@@H](Cc1ccc(O)cc1)C(=O)N[C@@H](CS)C(N)=O (Ac-CYSKYC-NH2)")
"Inactive up to 100 uM"
>>> assay_value("CC(=O)N[C@@H](Cc1ccccc1)C(=O)N[C@@H](CS)C(=O)N[C@@H](CO)C(=O)N[C@@H](CC(=O)O)C(=O)N[C@@H](Cc1ccc(O)cc1)C(=O)N[C@@H](CO)C(=O)N[C@@H](CS)C(=O)N[C@@H](Cc1ccc(O)cc1)C(=O)N[C@@H](CC(C)C)C(=O)N[C@@H](CC(=O)O)C(N)=O (Ac-FCSDYSCYLD-NH2)")
"Inactive up to 100 uM"

* * *

- target_desc: Adenylate cyclase (Rattus norvegicus) (UniProt D4A3N4+P26770+Q04400+P26769+Q03343+P40146+Q8CFM9+P21932)
- test: Adenylate cyclase stimulation; Inactive up to 100 uM.
- Type: protein assay
Active and inactive are the calls of the source. The rule behind the calls is not given here. Peptide text beside a SMILES is read from it.
measured_quantity: IA

>>> assay_value("CSCC[C@H](NC(=O)[C@H](CC(C)C)NC(=O)[C@H](Cc1c[nH]c2ccccc12)NC(=O)[C@H](CCC(N)=O)NC(=O)[C@@H](NC(=O)[C@H](Cc1ccccc1)NC(=O)[C@H](CC(=O)O)NC(=O)[C@H](CCC(N)=O)NC(=O)[C@H](C)NC(=O)[C@H](CCCN=C(N)N)NC(=O)[C@H](CCCN=C(N)N)NC(C)=O)C(C)C)C(=O)N[C@@H](CC(N)=O)C(=O)N[C@H](C(N)=O)[C@@H](C)O")
"Inactive up to 100 uM"
>>> assay_value("CC(=O)N[C@@H](Cc1ccccc1)C(=O)N[C@H](C(=O)N[C@@H](CO)C(=O)N[C@H]1CSSC[C@@H](C(=O)N[C@@H](CC(=O)O)C(N)=O)NC(=O)[C@H](Cc2ccc(O)cc2)NC(=O)[C@H](CCCCN)NC(=O)[C@H](CO)NC(=O)[C@H](Cc2ccc(O)cc2)NC1=O)[C@@H](C)O (HELM PEPTIDE1{[ac].F.T.S.C.Y.S.K.Y.C.D.[am]}$PEPTIDE1,PEPTIDE1,5:R3-10:R3$$$V2.0)")
"Inactive up to 100 uM"
>>> assay_value("CC(=O)N[C@@H](Cc1ccccc1)C(=O)N[C@@H](CS)C(=O)N[C@@H](CO)C(=O)N[C@@H](CC(=O)O)C(=O)N[C@@H](Cc1ccc(O)cc1)C(=O)N[C@@H](CS)C(=O)N[C@@H](CCCCN)C(=O)N[C@@H](Cc1ccc(O)cc1)C(=O)N[C@@H](CC(C)C)C(N)=O (Ac-FCSDYCKYL-NH2)")
"Inactive up to 100 uM"

Value source: ChEMBL document CHEMBL1134405
